Data provenance is PubChem BioAssay AID686971.

Experimental Details: qHTS for induction of synthetic lethality in tumor cells producing 2HG: qHTS for the HT-1080-IDH1KD cell line
Condition Set: HT-1080 IDH1 knockdown viability, ATP luminescence, 48 h; series mostly up to 46.1 µM
Screen size: about 360,000 compounds; about 7,500 (2.1%) were called active. Roughly 8% stayed inconclusive and do not appear here. The call rests on the fitted dose curve; in most records, active means well fitted cell-killing curve with a large enough effect; inconclusive means small, poorly fitted or top-dose-only effect, or effect the other way, or another doubt; inactive means no such curve, though single readings can be large or run the other way. This excerpt belongs to a sample that is enriched for actives.
Classes to choose from: Yes (active), No (inactive)

[[record]]
molecule = "O=C1C(=O)N(CC2COc3ccccc3O2)c2ccccc21 (configuration not stated)"
class_assignment = "No"

[[record]]
molecule = "COc1ccc(C(=O)NCC(=O)N/N=C/c2ccc([N+](=O)[O-])o2)cc1OC"
class_assignment = "Yes"

[[record]]
molecule = "COc1ccc(OCCC(=O)c2ccc(OC)cc2)cc1"
class_assignment = "Yes"

[[record]]
molecule = "Cc1ccsc1C(=O)OCC(=O)c1cc(C)n(CC2CCCO2)c1C (configuration not stated)"
class_assignment = "No"

[[record]]
molecule = "CCc1nc2c(OCCOc3ccccc3)cccn2c1N(C)C(=O)c1ccccc1F"
class_assignment = "No"


Lab log entry: Cc1cc(C(=O)CCl)c(C)n1CC1COc2ccccc2O1 (configuration not stated) — outcome as called in the assay?
Yes

* * *

Experimental Details: qHTS for induction of synthetic lethality in tumor cells producing 2HG: qHTS for the HT-1080-IDH1KD cell line
Condition Set: HT-1080 IDH1 knockdown viability, ATP luminescence, 48 h; series mostly up to 46.1 µM
Hit rate of the full screen: of about 360,000 compounds, about 7,500 (2.1%) were called active. Roughly 8% stayed inconclusive and do not appear here. The call rests on the fitted dose curve; in most records, active means well fitted cell-killing curve with a large enough effect; inconclusive means small, poorly fitted or top-dose-only effect, or effect the other way, or another doubt; inactive means no such curve, though single readings can be large or run the other way. Many of the other results were omitted from the sample, so actives are more common in it than they were.
Select the matching outcome among 1 (active), 0 (inactive)

Please review the entries below; each comes with its answer.
[[record]]
compound = "CC1(C(=O)NS(=O)(=O)c2ccc(C#N)cc2)CCN1C(=O)CC1CCCC1 (stereo not drawn)"
class_assignment = 0

[[record]]
compound = "CCN(CC)C(=O)C1=C(C)N(Cc2ccc(OC)cc2)C(=O)C(CC(=O)NCCCCc2ccccc2)C1 (stereo not drawn)"
class_assignment = 0

[[record]]
compound = "CCOC(=O)c1cc(-c2sc(NC(=O)c3ccccc3)nc2C)n(-c2ccc(Br)cc2)n1"
class_assignment = 0

[[record]]
compound = "CC(C)C[C@H]1CNC(=S)N1C[C@H]1CCCN1C[C@H](Cc1ccc(O)cc1)N1C[C@H](Cc2ccc(O)cc2)N(CC2CCCCC2)C1=S"
class_assignment = 1

[[record]]
compound = "CCOC(=O)[C@H]1Nc2ccc(Cl)cc2[C@@H]2[C@H]1C1CC(c3ccccc31)N2C(=O)OCc1ccccc1 (stereo partly drawn)"
class_assignment = 0


Test call for this compound, please: `CC(C)C[C@H]1CN([C@@H](Cc2ccccc2)CN2CCC[C@@H]2CN2C(=O)C(=O)NC[C@@H]2Cc2ccc(O)cc2)C(=O)C(=O)N1CCc1ccccc1`
0

For this compound, state the assay outcome: `O=C(COC(=O)c1ccc(S(=O)(=O)N2CCCCCC2)cc1)Nc1ccccc1C(F)(F)F`
0

Field: outcome | Entry: `NS(=O)(=O)c1ccc(NC(=O)CSc2nnc3c(n2)[nH]c2ccccc23)cc1`
0

* * *

Experimental Details: qHTS for induction of synthetic lethality in tumor cells producing 2HG: qHTS for the HT-1080-IDH1KD cell line
Condition Set: HT-1080 IDH1 knockdown viability, ATP luminescence, 48 h; series mostly up to 46.1 µM
Hit rate of the full screen: of about 360,000 compounds, about 7,500 (2.1%) were called active. Inconclusive results (about 8%) are left out. Calls come from the whole dose curve; as a rule, active = well fitted cell-killing curve with a large enough effect; inconclusive = small, poorly fitted or top-dose-only effect, or effect the other way, or another doubt; inactive = no such curve, though single readings can be large or run the other way. This excerpt belongs to a sample that is enriched for actives.
Hi! Could you answer with just one of these? label 1 for active, label 0 for inactive

Hello, I am checking results. What call was entered for `Cn1c(=O)n(Cc2ccco2)c(=N)c2c3c(sc21)CCCC3` ?
label 0

Can you look up the reported call for `CC(C)c1ccc(NC(=S)NNc2ccc(Cl)c(C(=O)O)c2)cc1` for me?
label 0

What did the test return for `Cc1ccccc1C(=O)Nc1ccccc1NC(=O)c1ccccc1C` ?
label 0

Which outcome did this test record for the compound `Cc1cc2nc(-c3ccc(F)cc3)c(Cc3ccsc3)n2c(C)c1Br` ?
label 0

What call does the record list for COC(=O)C1=C(Nc2ccc(C)cc2)C=C(C)C(C(=O)OC)C1c1ccc(F)cc1 (configuration not stated) ?
label 1

What call does the record list for `COC(=O)Cn1cc(/C=C/[N+](=O)[O-])c2ccccc21` ?
label 1

Hi, sorry to bother you, what did the test record for CC(C)CC1C(=O)N(Cc2cn(CC3CCCCC3)nn2)CCS(=O)(=O)N1Cc1ccc(-c2ccc(Cl)cc2)cc1 (configuration not stated) ?
label 0

Kindly provide the recorded test outcome for the following compound: O=C(O)C1CCCN1c1nc(Cl)ccc1[N+](=O)[O-] (configuration not stated)
label 0

I'd appreciate the recorded outcome for CSCCC(C(=O)NC(C)(C)C)n1c(-c2ccccc2)nc2ccccc21 (configuration not stated) from this test.
label 0

Returns: the outcome recorded for `Cc1cc2nc(-c3ccco3)c(Cc3cccc(F)c3)n2c(C)c1Br` in this assay.
label 1

What was the test verdict on `COc1cc2c(=O)n(C)c3ccccc3c2cc1OC` ?
label 0

Which outcome did this test record for the compound COC(=O)c1ccc(C2CC(=O)Nc3cc(OC)c(OC)cc32)cc1 (configuration not stated) ?
label 0

// param item: `CC1(C)CC(=O)C=C(c2ccc(COC(=O)c3cc(F)cc(F)c3)cc2)C1=O` ; yields the recorded call
label 0

Status in this test for `CCc1ccccc1OCC(=O)Nc1ccc(C)c(S(=O)(=O)N2CCCCCC2)c1` ?
label 0

Query: recorded result category for O=C1NC(Cc2ccccc2)c2nc3ccc(Br)cc3c(=O)n2-c2cc3ccccc3cc21 (configuration not stated) in this test
label 0

Could you check what this test reported for `O=C(NNC(=O)c1ccccc1O)c1ccccc1O` ?
label 1

What did the test return for Cc1cccc(C)c1NC(=O)C(c1cccc2ccccc12)n1c(=O)c(-c2ccco2)nc2ccccc21 (configuration not stated) ?
label 0

Lab log entry: `COC(=O)c1ccc2nc(-c3ccc(Cl)cc3)c(Cc3cccc(F)c3)n2c1` — outcome as called in the assay?
label 0

* * *

Experimental Details: qHTS for induction of synthetic lethality in tumor cells producing 2HG: qHTS for the HT-1080-IDH1KD cell line
Condition Set: HT-1080 IDH1 knockdown viability, ATP luminescence, 48 h; series mostly up to 46.1 µM
Hit rate of the full screen: of about 360,000 compounds, about 7,500 (2.1%) were called active. Not shown: some 8% with an inconclusive outcome. Calls come from the whole dose curve; as a rule, active = well fitted cell-killing curve with a large enough effect; inconclusive = small, poorly fitted or top-dose-only effect, or effect the other way, or another doubt; inactive = no such curve, though single readings can be large or run the other way. The full list was thinned out, with actives kept by preference.
Classes to choose from: active, inactive

[[record]]
molecule = "Cc1cccc(OCC(=O)NCCNC(=O)c2cccnc2)c1"
class_assignment = "inactive"


Outcome logged for `O=[N+]([O-])c1ccccc1/C=C/CN1CCC(O)CC1` in this assay:
inactive

Answer briefly: the call reported for `Cc1sc2nc(-c3ccccc3F)oc(=O)c2c1C` in this assay.
inactive

How did this test come out for COc1ccc(OC)c(C(O)c2ncc(-c3cccc(C(F)(F)F)c3)[nH]2)c1 (stereo not drawn) ?
inactive

Which outcome did this test record for the molecule `CC(=O)OC[C@@H]1CN(Cc2ccccc2)C[C@H](n2cnc3c(NCc4ccco4)ncnc32)O1` ?
inactive

Just curious, what result did `CSc1ncnc2c1ncn2CCCNCc1ccco1` get here?
inactive

What did the test return for `C#CCNC(=O)C[C@@H]1C[C@@]2(C(=O)OCC)CCCC=C2N(Cc2ccco2)C1=O` ?
inactive

Assay outcome for `O=C(CCC(=O)N/N=C/c1ccc(Br)o1)N/N=C/c1ccc(Br)o1` : what was it?
inactive

* * *

Experimental Details: qHTS for induction of synthetic lethality in tumor cells producing 2HG: qHTS for the HT-1080-IDH1KD cell line
Condition Set: HT-1080 IDH1 knockdown viability, ATP luminescence, 48 h; series mostly up to 46.1 µM
About 7,500 (2.1%) of roughly 360,000 compounds were called active. Not shown: some 8% with an inconclusive outcome. Calls follow the shape of the dose curve; as a rule, active = well fitted cell-killing curve with a large enough effect; inconclusive = small, poorly fitted or top-dose-only effect, or effect the other way, or another doubt; inactive = no such curve, though single readings can be large or run the other way. The entries come from a sample that favours actives as a whole.
Return exactly one item of True = active, False = inactive

[[record]]
compound = "O=C(NC1CCCCC1)C(c1cc2ccccc2o1)n1c(=O)c(-c2ccco2)nc2ccccc21 (stereo not given)"
class_assignment = "False"


Outcome logged for `Cc1ccc(NC(=O)c2cccs2)cc1S(=O)(=O)N(C)C` in this assay:
False

So what was the verdict on `Cc1nc2nc(CSc3nc4ccccc4s3)cc(=O)n2[nH]1` in this test?
False

Hi, sorry to bother you, what did the test record for CCCS(=O)(=O)NC(=O)C1(C)CCCN(C(=O)c2cccs2)C1 (stereo not given) ?
False

Please share the test call associated with `O=C(Nc1cccc(Cc2ccccc2)c1)Nc1ccc2nc([C@@H]3O[C@H](CO)[C@@H](O)[C@H](O)[C@H]3O)[nH]c2c1` .
False

Dear all, I need the recorded test outcome for `Cc1cccc(C=CC(=O)c2ccc(Cl)cc2)c1` , thank you.
False

Hello, I am checking results. What call was entered for `Cc1ccc(Cc2cnc(N)s2)o1` ?
False

What call does the record list for `Cc1ccc(CCC(=O)Nc2ncc(Cc3cc(Cl)ccc3Cl)s2)o1` ?
True

What outcome does the record of this test show for Cc1cc2c(cc1C)N1C(=O)c3cc4ccccc4cc3NC(=O)C1C(=O)N2 (stereo not given) ?
False

Field: outcome | Entry: COC(=O)c1ccc2c(c1)S(=O)(=O)NC2C (stereo not given)
False

Short answer needed: outcome of this test for `Cc1ccc(NNC(=O)c2cccs2)cc1Cl` ?
True

Query: recorded result category for `O=C(/C=C/Sc1ncn[nH]1)c1ccc(Cl)cc1` in this test
True

So what was the verdict on `Cc1ccc(C(=O)NNC(=O)c2cccs2)cc1` in this test?
False

Returns: the outcome recorded for `Cc1ccc(C(=O)N2CCCc3ccccc32)c(Cl)c1` in this assay.
False
